- experimental system: GST-tagged FAK (Homo sapiens, UniProt Q05397)
- Construct: purchased Invitrogen PV3832
- Sequence (Q05397 whole entry): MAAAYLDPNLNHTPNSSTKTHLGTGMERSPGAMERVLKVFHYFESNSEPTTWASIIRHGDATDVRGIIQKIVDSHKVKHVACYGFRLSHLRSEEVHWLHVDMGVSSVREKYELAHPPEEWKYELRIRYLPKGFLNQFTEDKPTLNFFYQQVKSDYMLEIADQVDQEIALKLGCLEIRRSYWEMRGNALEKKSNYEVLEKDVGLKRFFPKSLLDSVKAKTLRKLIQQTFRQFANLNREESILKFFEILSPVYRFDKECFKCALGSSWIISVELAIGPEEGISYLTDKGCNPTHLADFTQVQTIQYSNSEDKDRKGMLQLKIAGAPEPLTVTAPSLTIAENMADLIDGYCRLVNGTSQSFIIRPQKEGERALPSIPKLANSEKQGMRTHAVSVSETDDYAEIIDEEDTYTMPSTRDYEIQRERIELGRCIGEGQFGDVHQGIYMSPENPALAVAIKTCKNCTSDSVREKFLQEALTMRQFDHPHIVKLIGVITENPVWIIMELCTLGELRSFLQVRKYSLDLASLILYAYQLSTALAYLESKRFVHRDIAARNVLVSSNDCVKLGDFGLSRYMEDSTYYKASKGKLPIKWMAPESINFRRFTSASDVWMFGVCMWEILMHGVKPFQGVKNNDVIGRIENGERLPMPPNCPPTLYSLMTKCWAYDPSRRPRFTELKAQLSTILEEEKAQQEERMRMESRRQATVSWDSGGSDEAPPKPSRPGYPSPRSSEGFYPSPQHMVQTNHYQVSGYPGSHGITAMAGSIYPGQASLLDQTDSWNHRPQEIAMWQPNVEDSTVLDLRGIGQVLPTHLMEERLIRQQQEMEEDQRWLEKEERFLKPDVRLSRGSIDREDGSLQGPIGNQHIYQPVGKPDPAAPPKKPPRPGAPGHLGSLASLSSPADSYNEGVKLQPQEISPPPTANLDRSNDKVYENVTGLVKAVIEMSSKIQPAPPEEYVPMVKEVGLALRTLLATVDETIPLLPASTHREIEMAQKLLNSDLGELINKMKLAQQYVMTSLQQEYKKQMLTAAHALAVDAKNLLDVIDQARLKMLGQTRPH
- experimental details: Biochemical assay for FAK activity, Assay 1: phosphorylation of peptide substrate with radio-labeled ATP
- run parameters: 5 μM ATP, 30 min pre-incubation, read-out: Assay 1 FAK TRF PXC50 (converted)
Overview of recorded IC50 for various compounds
assay metric: IC50 (nM)

compound	experimental system	numeric readout
CNC(=O)c1ccccc1Nc1cc(Nc2ccnn2C)ncc1Cl [Example 2]	GST-tagged FAK (Homo sapiens, UniProt Q05397)	1.58
CONC(=O)c1ccccc1Nc1cc(Nc2cc(C)nn2C)ncc1Cl [Example 36]	GST-tagged FAK (Homo sapiens, UniProt Q05397)	0.398
CCn1nccc1Nc1cc(Nc2ccccc2C(=O)NC)c(Cl)cn1 [Example 3]	GST-tagged FAK (Homo sapiens, UniProt Q05397)	0.631
CNC(=O)c1ccccc1Nc1cc(Nc2cc(C)nn2CCN(C)C)ncc1C(F)(F)F [Example 31]	GST-tagged FAK (Homo sapiens, UniProt Q05397)	3.98
CNC(=O)c1ccccc1Nc1cc(Nc2cc(C)nn2CCN(C)C)ncc1Cl [Example 23]	GST-tagged FAK (Homo sapiens, UniProt Q05397)	79.4
CNC(=O)c1ccccc1Nc1cc(Nc2cc(C)nn2C)ncc1Cl [Example 5]	GST-tagged FAK (Homo sapiens, UniProt Q05397)	1
CCn1nc(C(=O)NC)cc1Nc1cc(Nc2ccccc2C(=O)NC)c(Cl)cn1 [Example 20]	GST-tagged FAK (Homo sapiens, UniProt Q05397)	10
CNC(=O)c1ccccc1Nc1cc(Nc2cc(-c3ccccc3)nn2C)ncc1Cl [Example 1]	GST-tagged FAK (Homo sapiens, UniProt Q05397)	2
CCn1nc(C(=O)NCCN(C)C)cc1Nc1cc(Nc2ccccc2C(=O)NC)c(Cl)cn1 [Example 24]	GST-tagged FAK (Homo sapiens, UniProt Q05397)	6.31
CNC(=O)c1ccccc1Nc1cc(Nc2cnn(C)c2C)ncc1Cl [Example 59]	GST-tagged FAK (Homo sapiens, UniProt Q05397)	0.631
CONC(=O)c1ccccc1Nc1cc(Nc2cc(C)nn2C(C)C)ncc1Cl [Example 41]	GST-tagged FAK (Homo sapiens, UniProt Q05397)	0.398
CCn1nc(C(=O)N(C)CCN(C)C)cc1Nc1cc(Nc2ccccc2C(=O)NC)c(Cl)cn1 [Example 25]	GST-tagged FAK (Homo sapiens, UniProt Q05397)	2.51
CNC(=O)c1ccccc1Nc1cc(Nc2ccnn2C2CCN(C)CC2)ncc1Cl [Example 22]	GST-tagged FAK (Homo sapiens, UniProt Q05397)	31.6
CNC(=O)c1cc(F)c(F)cc1Nc1cc(Nc2cc(C)nn2C)ncc1Cl [Example 9]	GST-tagged FAK (Homo sapiens, UniProt Q05397)	1
CNC(=O)c1ccccc1Nc1cc(Nc2cc(C)nn2C)ncc1C(F)(F)F [Example 28]	GST-tagged FAK (Homo sapiens, UniProt Q05397)	0.398
CCn1nccc1Nc1cc(Nc2ccccc2C(=O)NOC)c(Cl)cn1 [Example 40]	GST-tagged FAK (Homo sapiens, UniProt Q05397)	1.26
CNC(=O)c1cc(N2CCN(CCO)CC2)ccc1Nc1cc(Cl)ncc1Cl [Example 66]	GST-tagged FAK (Homo sapiens, UniProt Q05397)	2
CCn1nc(C)cc1Nc1cc(Nc2ccccc2C(=O)NC)c(Cl)cn1 [Example 13]	GST-tagged FAK (Homo sapiens, UniProt Q05397)	0.501
CCn1nc(C)cc1Nc1cc(Nc2ccccc2C(=O)NC)c(C(F)(F)F)cn1 [Example 32]	GST-tagged FAK (Homo sapiens, UniProt Q05397)	0.398
